Consider the following compounds; for each one, report its AC50.
Molecular target: Neuropeptide Y receptor type 1 (Homo sapiens); further: assay procedure not described here
Sequence (P25929 whole entry): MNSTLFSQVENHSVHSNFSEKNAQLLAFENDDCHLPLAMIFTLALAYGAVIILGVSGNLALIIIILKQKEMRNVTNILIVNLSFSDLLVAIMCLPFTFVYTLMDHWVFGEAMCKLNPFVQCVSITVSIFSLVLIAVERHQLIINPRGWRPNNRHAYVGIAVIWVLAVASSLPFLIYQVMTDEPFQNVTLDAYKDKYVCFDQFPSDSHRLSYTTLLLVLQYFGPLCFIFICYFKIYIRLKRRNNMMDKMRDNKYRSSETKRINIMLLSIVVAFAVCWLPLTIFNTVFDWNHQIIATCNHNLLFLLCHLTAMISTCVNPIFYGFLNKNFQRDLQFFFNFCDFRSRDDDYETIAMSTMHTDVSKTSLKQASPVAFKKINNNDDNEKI
Conditions: read-out: AC50

Name the recorded AC50 for Cc1cc2cc3c(C)cc(=O)oc3c(C)c2o1 [TRIOXSALEN] .
> 10 µM

Request: Clc1ccc(C(Cn2ccnc2)OCc2ccsc2Cl)c(Cl)c1 (centres undefined) [TIOCONAZOLE]
> 30 µM

Request: CC(C)COCC(CN(Cc1ccccc1)c1ccccc1)N1CCCC1 (centres undefined) [BEPRIDIL]
> 30 µM

Request: CC(N)C(O)c1ccccc1 (centres undefined) [PHENYLPROPANOLAMINE]
> 30 µM

Request: O=C1CCc2cc(OCCCCc3nnnn3C3CCCCC3)ccc2N1 [CILOSTAZOL]
> 30 µM

Request: CN1CCC(=C2c3ccccc3CCc3cccnc32)CC1 [AZATADINE]
> 30 µM

Request: C#CCOc1ccc(N)cc1C(=O)NCCCC [PARSALMIDE]
> 30 µM

Request: CC1(C)S[C@@H]2[C@H](NC(=O)[C@H](N)c3ccccc3)C(=O)N2[C@H]1C(=O)OCOC(=O)[C@@H]1N2C(=O)C[C@H]2S(=O)(=O)C1(C)C [SULTAMICILLIN]
> 30 µM

Request: CC(=O)[C@]1(O)Cc2c(O)c3c(c(O)c2[C@@H](O[C@H]2C[C@H](N)[C@H](O)[C@H](C)O2)C1)C(=O)c1ccccc1C3=O [IDARUBICIN]
> 10 µM
